Molecular target: Cbl-b (Homo sapiens (Human), UniProt Q13191)
Sequence (Q13191 36-427): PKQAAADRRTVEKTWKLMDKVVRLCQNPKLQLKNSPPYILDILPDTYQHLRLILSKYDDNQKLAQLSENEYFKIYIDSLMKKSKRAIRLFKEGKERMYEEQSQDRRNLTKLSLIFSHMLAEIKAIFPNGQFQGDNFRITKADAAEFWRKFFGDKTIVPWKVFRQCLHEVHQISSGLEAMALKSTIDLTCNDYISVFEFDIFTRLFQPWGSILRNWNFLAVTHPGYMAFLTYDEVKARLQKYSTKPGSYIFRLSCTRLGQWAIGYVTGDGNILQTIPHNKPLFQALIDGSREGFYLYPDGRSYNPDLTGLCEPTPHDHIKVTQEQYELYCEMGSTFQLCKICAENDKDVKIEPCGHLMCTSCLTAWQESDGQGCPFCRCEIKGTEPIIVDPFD
Experiment: Cbl-b displacement assay (Cbl-b inhibition assay), TR-FRET probe displacement, Biological Example 1
Format: binding
Conditions: Cbl-b concentration (High or Low) not given; read-out: IC50 values in the Cbl-b inhibition assay of Biological Example 1
Experimental: Candidate compounds were evaluated for their ability to bind and inhibit Cbl-b, an E3 ubiquitin-protein ligase, as evidenced by their ability to displace a fluorophore-labeled probe (Example 46) bound to Cbl-b. The ability of candidate compounds to displace a known inhibitor and thereby inhibit Cbl-b activity was measured by monitoring the interaction of Cbl-b with a fluorophore-labeled probe in the presence of the candidate compound. […]
pIC50: −log10 of the molar value.
measurement.name: pIC50

Qu. Query: pIC50; subject: CCOc1cc(C2(Cc3nncn3C)COC2)cc(N2Cc3c(cc(CN4CCC[C@H](C)C4)cc3C(F)(F)F)C2=O)n1
Ans. > 9.00

Qu. Query: pIC50; subject: CC1CN(Cc2cc3c(c(C(F)(F)F)c2)CN(c2cccc(C4([C@H](F)c5nncn5C)CC4)c2)C3=O)CCC1(F)F (stereo partly shown)
Ans. 8.30 to 9.00

Qu. Query: pIC50; subject: Cn1cnnc1CC1(c2cccc(N3Cc4c(cc(CN5CCCC(CC#N)C5)cc4C(F)(F)F)C3=O)c2)COC1 (stereo not shown)
Ans. 8.30 to 9.00

Qu. Query: pIC50; subject: CC1CN(Cc2cc3c(c(C(F)(F)F)c2)CN(c2cccc(C4(Cc5nncn5C)CC4)c2)C3=O)CCC1(F)F (stereo not shown)
Ans. > 9.00

Qu. Query: pIC50; subject: C[C@@H]1C[C@H](C)CN(Cc2cc3c(c(C(F)(F)F)c2)CN(c2cccc(-c4c(-c5nncn5C)cnn4C)c2)C3=O)C1
Ans. 8.30 to 9.00

Qu. Query: pIC50; subject: CCOc1cc(C2(Cc3nncn3C)COC2)cc(N2Cc3c(cc(CN4CCC(F)(F)[C@H](C)C4)cc3C(F)(F)F)C2=O)n1
Ans. 8.30 to 9.00

Qu. Query: pIC50; subject: C[C@H]1CCCN([C@H](C)c2cc3c(c(C4CC4)n2)CN(c2cccc(C4(Cc5nncn5C)COC4)c2)C3=O)C1
Ans. 8.30 to 9.00

Qu. Query: pIC50; subject: Cn1cnnc1CC1(c2cccc(N3Cc4c(cc(CN5CC(C(F)(F)F)C[C@H](C(F)(F)F)C5)cc4C(F)(F)F)C3=O)c2)COC1 (stereo partly shown)
Ans. 7.00 to 8.29

Qu. Query: pIC50; subject: C[C@H]1CCCN(Cc2cc3c(c(C(F)(F)F)c2)CN(c2cc(C4(Cc5nncn5C)COC4)cc(Cl)n2)C3=O)C1
Ans. 7.00 to 8.29

Qu. Query: pIC50; subject: Cn1cnnc1CC1(c2cccc(N3Cc4c(cc(CN5CCCC6(COC6)C5)cc4C(F)(F)F)C3=O)c2)COC1
Ans. 7.00 to 8.29
